- Target Or Test System: Transcription factor Sp1 (Homo sapiens)
- Protocol: ATG_Sp1_CIS: Attagene CIS-FACTORIAL HepG2 Assay for human Specificity Protein 1 (Sp1) (AID 2282961)
- Condition Set: HepG2 Sp1 cis-reporter transcription, actives raise or lower the signal
The source made the active and inactive calls. The calls were made as follows: active = hit-call score of the fitted dose curve at least 0.9, where 1 is the maximum; inactive = score below 0.9.
Outcome field: choose from TRUE = active, FALSE = inactive

A selection of reference data follows.
O=C(O)CC(O)C(=O)O (configuration not stated): FALSE
CCCN(C1CCN(C(=O)C2CCNCC2)CC1)[C@@H]1CCc2ccc(OC)cc2C1: TRUE
CC(=O)OCCC(C)C: FALSE
CC/C(=C\C(=N/O)C(N)=O)C(C)[N+](=O)[O-] (configuration not stated): FALSE
CCCCCCCCCCCCc1ccccc1: FALSE

Per the records of this test, what outcome belongs to `Cc1[nH]cnc1C[C@H]1CCc2c(C)c3ccccc3n2C1=O` ?
FALSE

Item: `C1=CCCC=CCCC=CCC1`
TRUE

Item: `CNCc1ccc(NC(=O)c2c[nH]c3c2C(=O)CCC3)cc1`
FALSE

Item: `COC(=O)c1c(Cl)c(Cl)c(C(=O)OC)c(Cl)c1Cl`
FALSE

Item: `Cn1cnc([N+](=O)[O-])c1Sc1ncnc2nc[nH]c12`
FALSE

Item: `CCNc1ccccc1`
FALSE

// provenance: PubChem BioAssay (EPA / NIEHS)
